For each record, write down the corresponding AUC of viability dose-response curve.
- Test system: NOMO1
- assay_method_text: AUC of viability dose-response curve (% viability x log10 dose units); higher = less sensitive
- settings: RPMI 5 mM glucose + 10% dialyzed FBS; 48 h
# print the numeric value only

Kindly note the recorded AUC of viability dose-response curve for "Cc1nc2cnc3ccc(C#Cc4cccnc4)cc3c2n1-c1ccc(C(C)(C)C#N)cc1" , which is 268

Documented AUC of viability dose-response curve of "CC(C)OC(=O)/C1=C/N(CC(C)(C)C2=C1[NH]C3=CC=CC=C23)C(=O)C4=CC=C(F)C(=C4)F" : 351

Sample "CN(C)C1CCN(C(=O)c2ccc(NC(=O)Nc3nc(N4CCOCC4)nc(N4CCOCC4)n3)cc2)CC1" ; AUC of viability dose-response curve observed: 272

Query Cc1nn(Cc2ccccc2Cl)c(C)c1CN(C)CC(O)COc1ccc(Cl)cc1 (stereo not given) yields AUC of viability dose-response curve of 436

Record "C[C@H](CCC(=O)O)[C@H]1CC[C@H]2[C@@H]3[C@@H](O)C[C@@H]4C[C@H](O)CC[C@]4(C)[C@H]3CC[C@]12C" . Reported AUC of viability dose-response curve: 398
